Entries and their measured Plant response rating, Corn follow.
System: corn (Zea mays)
Experiment: Test B pre-/postemergence
Assay type: in vivo
Settings: Rate 62 g/ha, Postemergence
parameter measured: Plant response rating, Corn

>>> val("Cc1cnc(-c2ccc(C(F)(F)F)cc2)nc1Cc1cccc(OC(F)(F)F)c1 [Compound 15]")
3
>>> val("Cc1cnc(-c2ccc(Cl)cc2F)nc1Cc1cccc(C#N)c1 [Compound 35]")
1
>>> val("Cc1cnc(-c2cccc(C(F)(F)F)c2)nc1Cc1cccc(C(F)(F)F)c1 [Compound 24]")
1
>>> val("Cc1cnc(-c2ccc(C#N)cc2)nc1Cc1cccc(C(F)(F)F)c1 [Compound 30]")
1
>>> val("Cc1cnc(-n2cnc(C(F)(F)F)c2)nc1Cc1cccc(C(F)(F)F)c1 [Compound 44]")
3
>>> val("Cc1cnc(-c2ccccc2F)nc1Cc1cccc(C#N)c1 [Compound 37]")
1
>>> val("Cc1cnc(-c2ccc(F)c(Cl)c2)nc1Cc1cccc(C#N)c1 [Compound 40]")
1
>>> val("Cc1cnc(-c2ccc(C(F)(F)F)cc2)nc1Cn1ccc(C(F)(F)F)n1 [compound 9]")
3
>>> val("Cc1cnc(-c2cccc(C(F)(F)F)c2)nc1Cc1cccc(C#N)c1 [Compound 39]")
1
>>> val("Cc1cnc(-n2cnc(C(F)(F)F)n2)nc1Cc1cccc(C(F)(F)F)c1 [Compound 43]")
3
>>> val("Cc1cnc(-c2ccc(Cl)cc2)nc1Cc1cccc(C(F)(F)F)c1 [Compound 28]")
2
>>> val("COC(=O)C(c1cccc(C(F)(F)F)c1)c1nc(-c2ccc(C(F)(F)F)cc2)ncc1C (racemic) [Compound 18]")
2
>>> val("Cc1cnc(-c2ccccc2F)nc1Cc1cccc(C(F)(F)F)c1 [Compound 26]")
1
>>> val("Cc1cnc(-c2ccc(C(F)(F)F)cc2)nc1Cn1nc(C(F)(F)F)cc1C [Compound 13]")
3
>>> val("Cc1cnc(-c2ccc(Cl)c(Cl)c2)nc1Cc1cccc(C(F)(F)F)c1 [Compound 27]")
2
>>> val("Cc1cnc(-c2ccc(Cl)c(Cl)c2)nc1Cc1cccc(C#N)c1 [Compound 38]")
1
>>> val("COc1cnc(-n2ccc(C(F)(F)F)n2)nc1Cc1cccc(C(F)(F)F)c1 [Compound 45]")
0
>>> val("Cc1cnc(-c2ccc(C(F)(F)F)cc2)nc1Cn1cnc(C(F)(F)F)n1 [Compound 11]")
3

----------
System: bedstraw (Galium aparine)
Assay: Test B pre-/postemergence
Format: in vivo
Details: Rate 125 g/ha, Preemergence
parameter measured: Plant response rating, Bedstraw

>>> val("Cc1cnc(-n2ccc(C(F)(F)C(F)(F)F)n2)nc1C(=O)c1cccc(C(F)(F)F)c1")
5
>>> val("N#Cc1ccc(-c2nccc(C(=O)c3cccc(C(F)(F)F)c3)n2)cc1")
0
>>> val("CCc1cnc(-n2cnc(C(F)(F)F)c2)nc1C(=O)c1cccc(OC(F)(F)F)c1")
1

----------
Tested on: velvetleaf (Abutilon theophrasti)
Assay: Test B pre-/postemergence
Assay type: in vivo
Conditions: Rate 500 g/ha, Postemergence
Plant response rating, Velvetleaf reference
parameter measured: Plant response rating, Velvetleaf

>>> val("Cc1cnc(-n2ccc(C(F)(F)F)n2)nc1Cn1ccc(C(F)(F)F)n1")
9
>>> val("Cc1cnc(-n2ccc(C(F)(F)C(F)(F)F)n2)nc1C(=O)c1cccc(C(F)(F)F)c1")
8
>>> val("Cc1cnc(-c2ccc(C(F)(F)F)cc2)nc1C(=O)c1ccc(C(F)(F)F)cc1")
2
